Tested on: A549 NSCLC
Experiment: NCI tumour cell line growth inhibition, 48 h
measuredQuantity: TGI

molecule	TGI
Cc1ccc(NC(=O)c2cc(S(=O)(=O)Nc3n[nH]c(=O)n3-c3ccccc3)c(S)cc2Cl)cc1	> 100 µM
CCN(CC)CCOCCn1c2c(c3ccccc31)CCCC2	72.2 µM
O=C(CC(=O)N1N=C(N2c3ccccc3Sc3ccccc32)CC1c1ccccc1)Nc1ccccc1Cl (stereo not given)	> 100 µM
CC(=O)OCC1OC(n2c3c(cc(C#N)c2=O)CCCCCC3)C(OC(C)=O)C(OC(C)=O)C1OC(C)=O (stereo not given)	> 100 µM
COC1=CC(=O)[C@]2(C)[C@H](C1=O)C(C)[C@H]2c1ccc(OC)cc1 (stereo not given in full)	> 100 µM

Query for A549 NSCLC: what TGI does the record show for O=C(O)CCN1CCN(CCC(=O)O)CCN(CCC(=O)O)CC1 ?
> 100 µM

Moving on to COC12OCCN(CCO)C1=CC(=O)C1(C)N=NC(C)C12 (stereo not given)
> 100 µM

Moving on to Cn1cc(-c2nonc2-c2cn(C)c3ccc(F)cc23)c2ccccc21
> 100 µM

Moving on to Brc1ccc(-c2[nH]c3ccccc3c2N=Nc2ccccc2)cc1
30.5 µM

Moving on to CC(OC(C)(C)C)[C@H](NC(=O)OCc1ccccc1)C(=O)NC(OCc1ccccc1)[C@H]1COC(C)(C)O1 (stereo not given in full)
> 100 µM

Moving on to O=C1C(NCCF)=C(Cl)C(=O)c2ncccc21
3.79 µM

Moving on to CC(C)C1(Cl)CCC2C3(C)CCCC(C)(C(=O)O)C3CC(Cl)C2(Cl)C1Cl (stereo not given)
> 100 µM

Moving on to COc1ccc(N2C(Cl)C(=O)C2c2c[nH]c3ccccc23)cc1 (stereo not given)
> 100 µM
